- System: PABPC1 PABC
- Type: binding, human
- cond: DMS-BM library, bait PABPC1 PABC, prey ATXN2, peptide TLNPNAKEFNPRSFSQ; S = wild type, row aa = residue at this position
Just a reminder that ties go to not fulfilled: only DMS-derived PSSM value, position S13 strictly below 0.1 counts as fulfilled.

- biosequence: "TLNPNAKEFNPRSFSQ S13L (TLNPNAKEFNPRLFSQ)"
  systemTested: "PABPC1 PABC"
  labelValue: "fulfilled"
- biosequence: "TLNPNAKEFNPRSFSQ S13K (TLNPNAKEFNPRKFSQ)"
  systemTested: "PABPC1 PABC"
  labelValue: "fulfilled"
- biosequence: "TLNPNAKEFNPRSFSQ S13T (TLNPNAKEFNPRTFSQ)"
  systemTested: "PABPC1 PABC"
  labelValue: "not fulfilled"
- biosequence: "TLNPNAKEFNPRSFSQ S13N (TLNPNAKEFNPRNFSQ)"
  systemTested: "PABPC1 PABC"
  labelValue: "fulfilled"
- biosequence: "TLNPNAKEFNPRSFSQ S13A (TLNPNAKEFNPRAFSQ)"
  systemTested: "PABPC1 PABC"
  labelValue: "not fulfilled"
- biosequence: "TLNPNAKEFNPRSFSQ S13Y (TLNPNAKEFNPRYFSQ)"
  systemTested: "PABPC1 PABC"
  labelValue: "fulfilled"

----------
- Test system: PABPC1 PABC
- Format: binding, human
- cond: DMS-BM library, bait PABPC1 PABC, prey ATXN2, peptide TLNPNAKEFNPRSFSQ; P = wild type, row aa = residue at this position
Overview of recorded DMS-derived PSSM value, position P4 for various sequences
endpointLabel: DMS-derived PSSM value, position P4

- biosequence: "TLNPNAKEFNPRSFSQ P4D (TLNDNAKEFNPRSFSQ)"
  systemTested: "PABPC1 PABC"
  endpointLabel: "DMS-derived PSSM value, position P4"
  quantitativeReadout: 0
- biosequence: "TLNPNAKEFNPRSFSQ P4L (TLNLNAKEFNPRSFSQ)"
  systemTested: "PABPC1 PABC"
  endpointLabel: "DMS-derived PSSM value, position P4"
  quantitativeReadout: 0.05708
- biosequence: "TLNPNAKEFNPRSFSQ P4K (TLNKNAKEFNPRSFSQ)"
  systemTested: "PABPC1 PABC"
  endpointLabel: "DMS-derived PSSM value, position P4"
  quantitativeReadout: 0
- biosequence: "TLNPNAKEFNPRSFSQ P4R (TLNRNAKEFNPRSFSQ)"
  systemTested: "PABPC1 PABC"
  endpointLabel: "DMS-derived PSSM value, position P4"
  quantitativeReadout: 0
- biosequence: "TLNPNAKEFNPRSFSQ P4N (TLNNNAKEFNPRSFSQ)"
  systemTested: "PABPC1 PABC"
  endpointLabel: "DMS-derived PSSM value, position P4"
  quantitativeReadout: 0.001049
- biosequence: "TLNPNAKEFNPRSFSQ P4M (TLNMNAKEFNPRSFSQ)"
  systemTested: "PABPC1 PABC"
  endpointLabel: "DMS-derived PSSM value, position P4"
  quantitativeReadout: 0.001164

----------
- Test system: G3BP1 NFT2
- Assay type: binding, human
- cond: library DMS-CoV; bait G3BP1 NFT2; prey N; peptide RNAPRITFGGPSDSTG; listed as aa = residue placed at this position; column sums to 1

- biosequence: "RNAPRITFGGPSDSTG A3V (RNVPRITFGGPSDSTG)"
  DMS PSSM value, A (position 3): 0
- biosequence: "RNAPRITFGGPSDSTG A3T (RNTPRITFGGPSDSTG)"
  DMS PSSM value, A (position 3): 0
- biosequence: "RNAPRITFGGPSDSTG A3M (RNMPRITFGGPSDSTG)"
  DMS PSSM value, A (position 3): 0
- biosequence: "RNAPRITFGGPSDSTG A3S (RNSPRITFGGPSDSTG)"
  DMS PSSM value, A (position 3): 0
- biosequence: "RNAPRITFGGPSDSTG A3D (RNDPRITFGGPSDSTG)"
  DMS PSSM value, A (position 3): 0.1526
- biosequence: "RNAPRITFGGPSDSTG A3H (RNHPRITFGGPSDSTG)"
  DMS PSSM value, A (position 3): 0
- biosequence: "RNAPRITFGGPSDSTG A3N (RNNPRITFGGPSDSTG)"
  DMS PSSM value, A (position 3): 0
- biosequence: "RNAPRITFGGPSDSTG A3E (RNEPRITFGGPSDSTG)"
  DMS PSSM value, A (position 3): 0.2371
- biosequence: "RNAPRITFGGPSDSTG"
  DMS PSSM value, A (position 3): 0
- biosequence: "RNAPRITFGGPSDSTG A3F (RNFPRITFGGPSDSTG)"
  DMS PSSM value, A (position 3): 0
- biosequence: "RNAPRITFGGPSDSTG A3L (RNLPRITFGGPSDSTG)"
  DMS PSSM value, A (position 3): 0
